Recorded values, source a melting point compilation (Tetko et al.; mined from patent text by program, amines drawn as free bases though some values may be those of a salt).

molecule	melting point [°C]
CCCCCCCCCCCCCCCCCCOc1ccc(NC(=O)c2ccc(OC(C)=O)cc2)cc1OCCCCCCCCCCCCCCCCCC	107
Cn1ccc(NC(=O)c2cc(C#N)cc(C(F)(F)F)n2)n1	190
CC1=C(S(C)(=O)=O)C(c2ccc(Cl)c([N+](=O)[O-])c2)C2=C(CCC2=O)N1 (stereo not given)	232
CCn1nc(-c2ccc(OC)cc2)c(-c2ccc(OC)c(F)c2)cc1=O	162
O=C1c2ccccc2C(=O)c2c1cccc2N1CCNCC1	190

====

compound	melting point
CS(=O)(=O)c1ccc(-c2ccccc2[N+](=O)[O-])cc1	178 °C
CCCc1nn(-c2ccc(C(F)(F)F)cn2)cc1CCCCOc1ccc(CCC(=O)O)c(C)c1	105 to 107 °C
COC(=O)C1CC(O)CN1C(=O)c1ccc(OC)c(OC)c1 (centres undefined)	174 °C
COc1ccc2sc(C(=O)NCCCCC(=O)O)c(OC(C)C)c2c1	135 to 137 °C
CC(=O)NC(=O)OC[C@]1(C)S[C@@H]2[C@H](NC(=O)Cc3ccccc3)C(=O)N2[C@H]1C(=O)OCc1ccc([N+](=O)[O-])cc1	83 to 85 °C
CCOc1ccc(C(=O)NCc2ccc3c(c2)C(=O)N(C2(C)CCC(=O)NC2=O)C3=O)nn1 (centres undefined)	126 to 128 °C
COC(=O)CC1(OCc2ccccc2)C=CC=C(c2ccccc2)C1 (centres undefined)	50 to 52 °C
CN(C)c1cccc(NC(=O)NC2C(=O)N(CC34CC5CC(CC(C5)C3)C4)c3ccccc3N(c3ccccc3)C2=O)c1 (centres undefined)	263 to 265 °C
Cn1nnc(-c2ccc3c(c2)c(C2=CCN(CCc4nnnn4C)CC2)cn3-c2ccc(F)cc2)n1	171 to 173 °C
